METRIC_NAME: melting point (°C)
Quick reminder: number only, in °C, skip the unit.

// returns reported melting point for input CCn1cnc2c(Nc3cccc(Cl)c3)nc(NC[C@H](C)O)nc21
161

Thanks! And CCn1cnc2c(Nc3cccc(Cl)c3)nc(N3CCCC(NC=O)C3)nc21 (centres unmarked) ?
184.3

Thanks! And CCn1cnc2c(Nc3cccc(Cl)c3)nc(N3C(C)CNCC3C)nc21 (centres unmarked) ?
183

Thanks! And CCn1cnc2c(Nc3cccc(Cl)c3)nc(N3CCCCC3)nc21 ?
126

Thanks! And CCn1cnc2c(Nc3cccc(Cl)c3)nc(NC3CCCCC3)nc21 ?
143

Thanks! And CCn1cnc2c(Nc3cccc(Cl)c3)nc(NCC(C)(C)N)nc21.Cl ?
196

Thanks! And CCn1cnc2c(Nc3cccc(Cl)c3)nc(Nc3cccc(N)c3)nc21 ?
205

Thanks! And CCn1cnc2c(Nc3ccc(Cl)c(C(F)(F)F)c3)nc(NCCO)nc21 ?
194

Thanks! And COc1cccc(Nc2nc(NN)nc3c2ncn3C(C)C)c1.Cl ?
250

Thanks! And CCn1cnc2c(Nc3cccc(F)c3)nc(NCCO)nc21 ?
184

Thanks! And CCn1cnc2c(Nc3cccc(Cl)c3)nc(N3CCCC(N)C3)nc21 (centres unmarked) ?
165

Thanks! And CCn1cnc2c(Nc3ccc(N)cc3)nc(NCCO)nc21 ?
210

Thanks! And CCn1cnc2c(Nc3ccc(F)cc3)nc(NCCO)nc21 ?
152

Thanks! And CC(C)n1cnc2c(Nc3ccc(F)cc3)nc(NCCO)nc21 ?
139

* * *

Please provide measured melting point for the entries that follow.

// returns reported melting point for input CCn1cnc2c(Nc3cccc(Cl)c3)nc(N3CCC4(CC3)OCCO4)nc21
159 to 161 °C

Thanks! And CCn1cnc2c(Nc3ccc(F)cc3)nc(NCCN)nc21.Cl ?
> 250 °C

Thanks! And CCn1cnc2c(Nc3cccc(Cl)c3)nc(N[C@H]3CC[C@H](O)CC3)nc21 ?
116.5 °C

Thanks! And CCn1cnc2c(Nc3cccc(Cl)c3)nc(N(CCO)C3CCCCC3)nc21 ?
125 to 128 °C

Thanks! And CCn1cnc2c(Nc3cccc(Cl)c3)nc(N3CCC[C@@H]3CN)nc21 ?
126 to 129 °C

* * *

Please provide measured melting point for the entries that follow.
Quick reminder: number only, in °C, skip the unit.

// returns reported melting point for input CCn1cnc2c(Nc3cccc(Cl)c3)nc(NC[C@@H](C)O)nc21
161

Thanks! And COc1cccc(Nc2nc(NCCN)nc3c2ncn3C(C)C)c1 ?
181

Thanks! And CCn1cnc2c(Nc3cccc(C#N)c3)nc(NCCN)nc21.Cl ?
200

Thanks! And CCn1cnc2c(Nc3cc(C(F)(F)F)cc(C(F)(F)F)c3)nc(NCCO)nc21 ?
202

Thanks! And CC[C@H](CO)Nc1nc(Nc2cccc(Cl)c2)c2ncn(CC)c2n1 ?
200

* * *

Please provide measured melting point for the entries that follow.

// returns reported melting point for input CC[C@@H](CO)Nc1nc(Nc2cccc(Cl)c2)c2ncn(CC)c2n1
203 °C

Thanks! And CCn1cnc2c(Nc3cccc(Cl)c3)nc(N[C@@H](C)C(N)=O)nc21 ?
117 to 121 °C

Thanks! And CCn1cnc2c(Nc3cccc(Cl)c3)nc(NCC3CCCO3)nc21 (stereo not shown) ?
84 to 86 °C

Thanks! And CCn1cnc2c(Nc3cccc(Cl)c3)nc(N(C)C3(O)CCCCC3)nc21 ?
143 to 145 °C

Thanks! And CCn1cnc2c(Nc3cccc(C(F)(F)F)c3)nc(NCCN)nc21 ?
> 250 °C

Thanks! And COc1cccc(Nc2nc(NCCCO)nc3c2ncn3CCO)c1 ?
132 to 133 °C

Thanks! And CCn1cnc2c(Nc3cccc(C(=O)NCCCO)c3C)nc(NCCCO)nc21 ?
138 to 142 °C

Thanks! And CC(C)n1cnc2c(Nc3ccc(F)cc3)nc(NCCN)nc21.Cl ?
> 250 °C

Thanks! And CCn1cnc2c(Nc3ccc(NC(=O)OCc4ccccc4)cc3)nc(NCCO)nc21 ?
148 °C

Thanks! And CCn1cnc2c(Nc3cccc(Cl)c3)nc(NCCc3c[nH]c4ccccc34)nc21 ?
106 to 108 °C

Thanks! And CCn1cnc2c(Nc3cccc(Cl)c3)nc(NCCc3ccccn3)nc21 ?
152 to 153 °C

Thanks! And COc1cc(Nc2nc(NCCCO)nc3c2ncn3C)cc(OC)c1OC ?
166 to 167 °C

Thanks! And CCn1cnc2c(Nc3ccc(C(F)(F)F)cc3)nc(NCCO)nc21 ?
191 to 192 °C

Thanks! And CCn1cnc2c(Nc3cccc(Cl)c3)nc(N3CCC[C@H]3C(N)=O)nc21 ?
> 240 °C

Thanks! And CCn1cnc2c(Nc3cccc(Cl)c3)nc(N3CCNCC3)nc21 ?
181.5 to 182.5 °C

Thanks! And CCn1cnc2c(Nc3cccc(Cl)c3)nc(N3CCC(O)CC3)nc21 ?
198.7 °C

Thanks! And CCn1cnc2c(Nc3cccc(Cl)c3)nc(N3CCC[C@H]3CO)nc21 ?
169 °C

Thanks! And CCn1cnc2c(Nc3cccc(Cl)c3)nc(N3CCC[C@@H]3C(N)=O)nc21 ?
> 230 °C

Thanks! And COc1cccc(Nc2nc(NCCCO)nc3c2ncn3C(C)C)c1 ?
128 to 129 °C
